- Condition set: in n-propanol, 283.15 K
Readout kind: solubility (mole fraction)

> print(dat)
                     compound.string  experimental.value
1  COc1ccc(CN2CCNCC2)c(OC)c1OC.Cl.Cl            0.000217

----------
- Condition set: in n-butanol, 313.15 K
Readout kind: solubility (mole fraction)

> print(dat)
                     compound.string                readout.kind  experimental.value
1  COc1ccc(CN2CCNCC2)c(OC)c1OC.Cl.Cl  solubility (mole fraction)            0.000336

----------
- Condition set: in isopropanol, 293.15 K
Readout kind: solubility (mole fraction)

> print(dat)
                     compound.string  experimental.value
1  COc1ccc(CN2CCNCC2)c(OC)c1OC.Cl.Cl            0.000133
